Target: Mitogen-activated protein kinase kinase kinase kinase 1 (Homo sapiens, UniProt Q92918); further: in the data inactive means no Kd found up to 30 µM
Sequence (Q92918 whole entry): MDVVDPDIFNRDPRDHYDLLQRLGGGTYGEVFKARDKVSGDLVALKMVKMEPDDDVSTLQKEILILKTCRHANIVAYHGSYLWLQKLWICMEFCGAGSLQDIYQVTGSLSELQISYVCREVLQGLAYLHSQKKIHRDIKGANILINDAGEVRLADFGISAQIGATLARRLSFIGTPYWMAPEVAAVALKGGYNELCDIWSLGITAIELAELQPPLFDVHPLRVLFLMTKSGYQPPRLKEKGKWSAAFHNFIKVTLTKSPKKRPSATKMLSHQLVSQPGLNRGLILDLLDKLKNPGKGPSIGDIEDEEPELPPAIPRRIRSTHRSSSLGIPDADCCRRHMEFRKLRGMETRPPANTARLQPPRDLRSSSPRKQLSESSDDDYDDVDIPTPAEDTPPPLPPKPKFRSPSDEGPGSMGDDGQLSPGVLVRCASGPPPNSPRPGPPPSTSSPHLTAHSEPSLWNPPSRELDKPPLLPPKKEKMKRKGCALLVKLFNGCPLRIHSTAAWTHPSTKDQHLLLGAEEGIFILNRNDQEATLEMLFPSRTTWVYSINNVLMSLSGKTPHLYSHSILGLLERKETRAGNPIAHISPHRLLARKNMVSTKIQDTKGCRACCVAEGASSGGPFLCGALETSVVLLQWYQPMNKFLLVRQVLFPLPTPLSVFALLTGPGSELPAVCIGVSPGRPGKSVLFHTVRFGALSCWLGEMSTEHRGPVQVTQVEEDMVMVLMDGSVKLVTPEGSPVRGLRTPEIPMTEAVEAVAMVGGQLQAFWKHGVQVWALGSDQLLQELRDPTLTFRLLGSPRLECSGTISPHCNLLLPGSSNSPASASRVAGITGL
The source made the active and inactive calls.
Reply using exactly one outcome from active, inactive

Worked examples, 2 molecules total:
Task: Hey, what did the test say about CCn1cc(-c2ccnc3[nH]c(-c4cccc(CN(C)C)c4)cc23)c(-c2ccc(NC(=O)N(C)C)cc2)n1 ?
Output: inactive

Task: Any idea what this test logged for FC(F)(F)c1ccc(/C=C/c2nc(COc3ccc(CCCCn4ccnn4)cc3)co2)cc1 ?
Output: inactive

Further cases:
Task: Dear all, I need the recorded test outcome for Cc1nc2cc(-c3nn(C(C)C)c4ncnc(N)c34)ccc2o1 , thank you.
Output: inactive

Task: Which outcome did this test record for the molecule Cc1cc(Nc2ncnc3ccc(NC4=NC(C)(C)CO4)cc23)ccc1Oc1ccn2ncnc2c1 ?
Output: inactive

Task: Status in this test for O=C(Nc1c[nH]nc1-c1nc2cc(CN3CCOCC3)ccc2[nH]1)NC1CC1 ?
Output: active
